These measurements were taken from ChEMBL document CHEMBL5058577.

// reported Population Mitochondria Different-Phenotype (%) per item
Test system: HEK-293T
Assay: Multiplex assay against HEK293T
Assay type: toxicity, cell-based
Conditions: human, 24 h, 1 µM, compound concentration 1 uM, replicate 1
recorded.metric: Population Mitochondria Different-Phenotype (%)

compound	endpoint.value
N#Cc1cc(F)cc(-c2nc(-c3ccc(F)cn3)no2)c1	19
COc1ccccc1N1CCN(C[C@@H](C(=O)NC(C)(C)C)c2ccccc2)CC1.Cl.Cl	31
N#Cc1c(Oc2cccc(OS(=O)(=O)CCCC(F)(F)F)c2)cccc1C(F)(F)F	34
Cc1cccc(NC(=O)CN2CCC(c3ccccn3)CC2)c1.Cl.Cl	30
Br.CS(=O)(=O)Nc1c(O)ccc2c1CCCC2C1=NCCN1 (stereo unspecified)	34
CCCOc1ccc2[nH]cc(C3=CCNCC3)c2n1.Cl	26
O=C(NCCN1CCC(n2c(=O)[nH]c3cc(Cl)ccc32)CC1)c1ccc(F)cc1 [HALOPEMIDE]	35
CN[C@@H](C)C(=O)N[C@H](C(=O)N1CCC[C@H]1C(=O)Nc1snnc1-c1ccccc1)C1CCCCC1	28
CN(C)C(=O)Cn1cc(-c2ccc(-c3cncc4ccccc34)cc2)cn1	38
O=C1[C@H](Cc2ccc(O)cc2)N2C(=O)CCN(C(=O)NCc3ccccc3)[C@H]2CN1Cc1cccc2ccccc12	49
CCc1cc2cc(NS(=O)(=O)c3ccc(C#N)cc3)ccc2n(CC)c1=O	19
Cc1onc(-c2ccccc2Cl)c1C(=O)N(C)c1ccc(Cl)cc1	21
CCCCC1=NC2(CCCC2)C(=O)N1Cc1ccc(-c2ccccc2-c2nnn[nH]2)cc1	24
CCCCCC(O)/C=C/[C@H]1C(=O)CC(O)C1C/C=C\CCCC(=O)O (stereo partly specified)	22
Cc1noc(-c2ccc(-c3ccc(CC(=O)O)cc3)cc2)c1NC(=O)O[C@H](C)c1ccccc1Cl	23
NCCc1cn(S(=O)(=O)c2c(Cl)nc3sccn23)c2ccccc12.O=C(O)C(=O)O	28
Cc1cnc(-c2cc(N3CCN(C(=O)CCS(C)(=O)=O)CC3)ncc2Cl)c(C)c1	30
Cc1c(CC(=O)O)c2cccnc2n1Cc1ccc(S(C)(=O)=O)cc1C(F)(F)F	18
CC(C)COc1ccc(CNC(=O)N(Cc2ccc(F)cc2)C2CCN(C)CC2)cc1	42
COc1cccc2c1c(NS(=O)(=O)c1ccc(Cl)s1)nn2Cc1cccc(CNC(=O)C(C)(C)O)c1	22
CCCCC(=O)N(Cc1ccc(-c2ccccc2-c2nnn[nH]2)cc1)[C@H](C(=O)O)C(C)C	21

* * *

// reported Population Fragmented Nuclei (%) per item
Test system: U2OS
Experiment: Multiplex assay against U2OS
Format: toxicity, cell-based
Conditions: human, 24 h, 1 µM, compound concentration 1 uM, replicate 1

compound	Population Fragmented Nuclei (%)
N#Cc1cc(F)cc(-c2nc(-c3ccc(F)cn3)no2)c1	22
NCCc1cn(S(=O)(=O)c2c(Cl)nc3sccn23)c2ccccc12.O=C(O)C(=O)O	25
CC(/C=C1\SC(=S)N(CCCC(=O)Nc2ccc(C(=O)O)c(O)c2)C1=O)=C\c1ccccc1	25
CN(C)C(=O)Cn1cc(-c2ccc(-c3cncc4ccccc34)cc2)cn1	21
Cc1onc(-c2ccccc2Cl)c1C(=O)N(C)c1ccc(Cl)cc1	23
Cc1sc2c(c1C)C(c1ccc(Cl)cc1)=N[C@@H](CC(=O)NCCCCCCCCNC(=O)COc1cccc3c1C(=O)N(C1CCC(=O)NC1=O)C3=O)c1nnc(C)n1-2 (stereo partly drawn)	42
Br.CS(=O)(=O)Nc1c(O)ccc2c1CCCC2C1=NCCN1 (stereo not drawn)	18
COc1cccc2c1c(NS(=O)(=O)c1ccc(Cl)s1)nn2Cc1cccc(CNC(=O)C(C)(C)O)c1	20
O=C(NCCN1CCC(n2c(=O)[nH]c3cc(Cl)ccc32)CC1)c1ccc(F)cc1 [HALOPEMIDE]	22
O=C1[C@H](Cc2ccc(O)cc2)N2C(=O)CCN(C(=O)NCc3ccccc3)[C@H]2CN1Cc1cccc2ccccc12	13
O=C(CCCc1ccccc1)Nc1nc2ccccc2c(=O)s1	22
Cc1cnc(-c2cc(N3CCN(C(=O)CCS(C)(=O)=O)CC3)ncc2Cl)c(C)c1	30
COc1ccccc1N1CCN(C[C@@H](C(=O)NC(C)(C)C)c2ccccc2)CC1.Cl.Cl	29
CC(=O)Nc1cccc2c1c(Sc1ccc(Cl)cc1)c(C)n2CC(=O)O	25
CC[C@@H](C)Nc1nc(C)nc2c(-c3ccc(OC)nc3C)c(C)nn12	21
COC[C@@H](c1ccc(C(F)(F)F)cc1)N1CCN(C2(C)CCN(C(=O)c3c(C)ncnc3C)CC2)C[C@@H]1C.O=C(O)/C=C\C(=O)O [VICRIVIROC MALEATE]	25
N#Cc1c(Oc2cccc(OS(=O)(=O)CCCC(F)(F)F)c2)cccc1C(F)(F)F	25
CC(C)c1noc(N2CCC(COc3ccc(-c4ccc(S(C)(=O)=O)cc4)nc3)CC2)n1	32
